This collection of values is drawn from patent US10448639B2.

- Tested on: Septoria nodorum
- assay explanation: Test F: Septoria glume blotch, preventive spray on wheat seedlings, visual disease rating
- assay context: Septoria glume blotch on wheat; 100 = 100% disease control, 0 = no disease control relative to controls
measure name: Test F disease control rating

Could you share which Test F disease control rating value was measured for COc1ccc(Nc2c(-c3ccc(Cl)cc3Cl)c(C)nn2C)cc1 ?
0%

Could you share which Test F disease control rating value was measured for Cc1nn(C)c(Nc2c(F)cc(F)cc2Cl)c1-c1ccc(Cl)cc1Cl ?
73%

Could you share which Test F disease control rating value was measured for Cc1nn(C)c(Oc2c(F)cc(C#N)cc2F)c1-c1ccccc1C(F)(F)F ?
0%

Could you share which Test F disease control rating value was measured for Cc1nn(C)c(N(c2c(F)cc(F)cc2F)S(C)(=O)=O)c1-c1ccc(F)cc1Cl ?
0%

Could you share which Test F disease control rating value was measured for Cc1nn(C)c(C(O)c2c(F)ccc(F)c2F)c1-c1ccc(F)cc1Cl (racemic) ?
0%

Could you share which Test F disease control rating value was measured for Cc1nn(C)c(Oc2ccc(C#N)cc2F)c1-c1c(F)cccc1Cl ?
99%

Could you share which Test F disease control rating value was measured for Cc1nn(C)c(N(CC#N)c2c(F)cc(F)cc2F)c1-c1ccc(F)cc1Cl ?
73%

Could you share which Test F disease control rating value was measured for COc1ccc(-c2c(C)nn(C)c2Oc2ccc(C#N)cc2Cl)c(Br)c1 ?
0%

Could you share which Test F disease control rating value was measured for Cc1nn(C)c(Nc2ccc(F)cc2F)c1-c1c(Cl)cccc1Cl ?
0%

Could you share which Test F disease control rating value was measured for Cc1nn(C)c(Nc2ncc(Cl)cc2Cl)c1-c1c(F)cccc1F ?
78%

Could you share which Test F disease control rating value was measured for COc1ccc(-c2c(C)nn(C)c2Oc2ccc(C#N)cc2F)c(Br)c1 ?
100%

Could you share which Test F disease control rating value was measured for Cc1nn(C)c(Nc2ccc(F)cc2F)c1-c1ccccc1Cl ?
0%

Could you share which Test F disease control rating value was measured for COCN(c1c(F)cc(F)cc1F)c1c(-c2ccc(F)cc2Cl)c(C)nn1C ?
60%

Could you share which Test F disease control rating value was measured for Cc1nn(C)c(Nc2ccc(F)cc2Br)c1-c1c(Cl)cccc1Cl ?
0%

Could you share which Test F disease control rating value was measured for Cc1nn(C)c(Nc2ncc(Cl)cc2Cl)c1-c1ccccc1Cl ?
0%

Could you share which Test F disease control rating value was measured for Cc1nn(C)c(Nc2c(Cl)cc(F)cc2Cl)c1-c1ccc(Cl)cc1Cl ?
0%

Could you share which Test F disease control rating value was measured for Cc1nn(C)c(Nc2ncc(Cl)cc2Cl)c1-c1ccc(F)cc1F ?
0%

Could you share which Test F disease control rating value was measured for Cc1nn(C)c(Nc2ccc(F)cc2F)c1-c1ccc(C#N)cc1Cl ?
73%

Could you share which Test F disease control rating value was measured for Cc1nn(C)c(Oc2c(F)cc(C#N)cc2F)c1-c1cc(F)ccc1F ?
69%

Could you share which Test F disease control rating value was measured for Cc1nn(C)c(C(O)c2ccc(F)cc2)c1-c1ccc(F)cc1Cl (racemic) ?
0%
